Attribution: paper doi:10.1101/2025.10.21.683780

- target.or.test.system: OATP1B3 (Homo sapiens)
- Construct: gene SLCO1B3
- Sequence (Q9NPD5 whole entry): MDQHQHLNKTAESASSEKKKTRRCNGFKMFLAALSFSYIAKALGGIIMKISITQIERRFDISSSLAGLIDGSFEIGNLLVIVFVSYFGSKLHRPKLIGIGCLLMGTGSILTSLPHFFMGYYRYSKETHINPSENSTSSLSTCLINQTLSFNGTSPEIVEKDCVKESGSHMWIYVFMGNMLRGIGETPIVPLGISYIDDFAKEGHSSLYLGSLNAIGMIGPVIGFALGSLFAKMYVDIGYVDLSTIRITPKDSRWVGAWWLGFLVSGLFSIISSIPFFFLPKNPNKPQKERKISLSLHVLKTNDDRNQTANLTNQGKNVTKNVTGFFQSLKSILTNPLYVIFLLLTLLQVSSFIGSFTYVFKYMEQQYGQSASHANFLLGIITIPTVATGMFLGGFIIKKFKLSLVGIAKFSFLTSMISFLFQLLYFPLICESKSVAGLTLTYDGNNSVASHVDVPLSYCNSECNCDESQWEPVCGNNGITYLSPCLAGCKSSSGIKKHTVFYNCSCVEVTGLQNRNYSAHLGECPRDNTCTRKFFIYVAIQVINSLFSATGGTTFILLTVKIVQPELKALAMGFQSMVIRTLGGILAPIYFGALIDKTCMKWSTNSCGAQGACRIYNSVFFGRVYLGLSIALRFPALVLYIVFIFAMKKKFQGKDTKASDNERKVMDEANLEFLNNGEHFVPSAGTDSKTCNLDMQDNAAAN
- Assay type: cell-based
- reported.conditions: hek293 cells
quantity.measured: IC50 (µM)

• Cc1onc(-c2c(Cl)cccc2Cl)c1C(=O)N[C@@H]1C(=O)N2[C@@H]1SC(C)(C)[C@@H]2C(=O)O = 6.68
